assay-method-text: Tissue distribution after i.g. or i.v. linezolid in control, CCl4-induced and 5/6 Nx rats
Format: in vivo, rat
test-settings: rat, brain, oral, 63 mg/kg, i.g. 63 mg/kg linezolid; 4 h; control rats; read-out: Tissue/plasma concentration ratio, Brain
measure: Kp at 4 h

compound-structure-string: CC(=O)NC[C@H]1CN(c2ccc(N3CCOCC3)c(F)c2)C(=O)O1
measure: Kp at 4 h
value-reported: 0.06

* * *

assay-method-text: in vivo
test-settings: Sprague-Dawley, rat, in vivo, po, 63 mg/kg, t1/2
# half-life annotations
measure: half-life (h)

compound: CC(=O)NC[C@H]1CN(c2ccc(N3CCOCC3)c(F)c2)C(=O)O1 [Linezolid]
value-reported: 1.84
--
compound: CC(=O)NC[C@H]1CN(c2ccc(N(CCO)CC(=O)O)c(F)c2)C(=O)O1 [PNU-142586]
value-reported: 4.31

Data origin, for the record: paper PMC12057336
